# System: NCI/ADR-RES ovarian
# MEASUREMENT_NOTES: NCI-60 one-dose screen, 48 h
# CONDITION_NOTES: 10 µM unless noted
About 83,000 compounds went through this panel and 20% of them were active in at least one assay; those are over-represented in the sample as a whole. Activity calls are given as the source filed them. The calls were made as follows: active = growth percent below 10; inactive = the rest.
Classes to choose from: true (active), false (inactive)

Field: example entries. Status: answers known.
COMPOUND	ASSIGNED_CLASS
COc1cccc(/C(C#N)=C/c2nc3c(N4CCOCC4)nc(Cl)nc3n2C)c1	false
COc1ccc(Cn2c(Br)c3c(c2Br)-c2nc(NC(=O)c4ccc(OC)cc4)sc2CC3)cc1	false

Alright, here's another compound for you.
Hi, sorry to bother you, what did the test record for Cc1ccc(C2CC(c3ccc(Nc4nc(NCCO)nc(Nc5ccc(Cl)cc5)n4)cc3)=NN2c2cc(Cl)cc(Cl)c2)cc1 (stereo not given) ?
false

====

# Tested on: SW-620 colon
# MEASUREMENT_NOTES: NCI-60 one-dose screen, 48 h
# CONDITION_NOTES: 10 µM unless noted
# Description: Growth inhibition of the SW-620 human tumor cell line is measured as a screen for anti-cancer activity. Cells are grown in 96 well plates and exposed to the test compound for 48 hours. Compounds are tested at a single concentration, which is 10^-5 M for most compounds. The reported endpoint is percent growth (GI% or GIPRCNT), where numbers from 0 - 100% represent growth inhibition, and numbers from -100% - 0 represent cell death. For example, a value of 40 represents 60% growth inhibition. […]
About 83,000 compounds went through this panel and 20% of them were active in at least one assay; those are over-represented in the sample as a whole. Active and inactive are the calls of the source. The calls were made as follows: active = growth percent below 10; inactive = the rest.
Classes to choose from: label 1 (active), label 0 (inactive)

Field: example entries. Status: answers known.
COMPOUND	SYSTEM	ASSIGNED_CLASS
COc1ccc(-c2cn3c(C(=O)Nc4ccccc4Cl)c(-c4ccccc4)c4c3n2CCCC4)cc1	SW-620 colon	label 0
O=Cc1c(OCc2cnnn2CC(=O)Nc2ccc(Br)cc2)ccc2ccccc12	SW-620 colon	label 0
CCOC(=O)c1sc(-c2ccc(OS(=O)(=O)c3ccccc3[N+](=O)[O-])c(C=O)c2)nc1C	SW-620 colon	label 0
CC[C@]1(O)C[C@@H]2CN(CCc3c([nH]c4ccccc34)[C@@](C(=O)OC)(c3cc4c(cc3OC)N(C)[C@H]3[C@@](O)(C(=O)OC)[C@H](OC(C)=O)[C@]5(CC)C=CCN6CC[C@]43[C@@H]65)C2)C1	SW-620 colon	label 0
Cc1ccc(F)cc1NC(=O)c1cc(Cl)ccc1Nc1ccccc1	SW-620 colon	label 0

Hi, sorry to bother you, what did the test record for O=C(/C=C/c1ccc(C(F)(F)F)cc1)c1ccc(Nc2nc(NCCO)nc(N3CCOCC3)n2)cc1 ?
label 1

Hi, sorry to bother you, what did the test record for CCN1C(=O)N(CC)C2Nn3c(s/c(=C\c4ccccc4F)c3=O)=NC21 (stereo not drawn) ?
label 0

Hi, sorry to bother you, what did the test record for CCCCCCC(O)(c1ccc(F)cc1)C(CN1CCOCC1)c1ccccc1 (stereo not drawn) ?
label 0

====

# Tested on: NCI-H23 lung
# MEASUREMENT_NOTES: NCI-60 one-dose screen, 48 h (100 = growth as untreated, 0 = no growth, -100 = all killed)
# CONDITION_NOTES: 10 µM unless noted
About 83,000 compounds went through this panel and 20% of them were active in at least one assay; those are over-represented in the sample as a whole. Activity calls are given as the source filed them. How the source made its calls: active means growth percent below 10; inactive means the rest.
METRIC: growth

COMPOUND	RESULT
COc1ccc(/C=C2\N=C(c3ccccc3)N(c3ccc(-c4nc5ccc(C)cc5s4)cc3)C2=O)cc1	87.1% (inactive)
COC(=O)c1c2c(c(C)[n+]([O-])c1C)C(=O)C(NCc1ccc(Br)cc1)=CC2=O	11% (inactive)
CC(C)C[C@H](C(=O)N[C@@H](C)C(N)=O)N1CC=CCN(O)S1(=O)=O	110% [5 µM] (inactive)
Cc1ccc(Nc2nc(N)c3ccccc3n2)cc1Cl	53.8% (inactive)
O=S1(=O)CCN(Cc2ccccc2)CC1	98.4% (inactive)
COc1ccc(C2NCCc3c2[nH]c2ccccc32)cc1CN1CCN(c2ccc(F)cc2)CC1 (configuration not stated)	64.8% (inactive)
O=C(Nc1ccc(I)cc1F)c1cc(Br)ccc1O	3.44% (active)
COc1ccc2c(c1)C=C1CSCC3=Cc4cc(OC)ccc4OC13O2	18.7% (inactive)

growth recorded for this compound, COc1ccc(CCN2C(=O)CCSC2=S)cc1OC , is 103% (inactive)

growth recorded for this compound, CCOC(=O)c1ccc2[nH]c(-c3ccccc3)cc(=O)c2c1 , is 99.7% (inactive)

growth recorded for this compound, CCN1C(=O)N(CC)C2Nn3c(s/c(=C\c4ccccc4F)c3=O)=NC21 (configuration not stated) , is 41.8% (inactive)

growth recorded for this compound, Cc1nc(Nc2cn[nH]c2C(=O)Nc2ccc(CN3CCN(C)CC3)cc2)c2ccsc2n1 , is 95.5% (inactive)

growth recorded for this compound, O=c1c2cccc(F)c2sc2c(N3CCNCC3)nc3ccccc3c12 , is 51% (inactive)

growth recorded for this compound, COc1ccccc1CNC(=O)C1c2ccccc2C(=O)N(CC(C)C)C1c1cccs1 (configuration not stated) , is 76.6% (inactive)

growth recorded for this compound, CC1(C)CC2(C)OC2C2(C1)N=NC(=Nc1ccccc1)O2 (configuration not stated) , is 88.9% (inactive)

growth recorded for this compound, COc1ccc(Cn2c(Br)c3c(c2-c2cc(OC)c(OC)c(OC)c2)CCc2sc(NC(=O)c4ccc(OC)cc4)nc2-3)cc1 , is 91.9% (inactive)

growth recorded for this compound, N#C/C(=C\c1c(-c2ccccc2)[nH]c2ccccc12)C(=O)c1ccccc1 , is 47.9% (inactive)

growth recorded for this compound, O=C(Nc1ccc(N2CCNCC2)cc1)c1[nH]ncc1Nc1cc(Oc2ccccc2)ncn1 , is 20.6% (inactive)

growth recorded for this compound, COc1ccc(OC)c(NC(=O)/C(C#N)=C/c2ccco2)c1 , is 96.6% (inactive)

growth recorded for this compound, CCCc1c(C)c2sc(=O)[nH]c2[nH]c1=O , is 104% (inactive)

growth recorded for this compound, O=C(NN1C(=O)CSC1c1ccc(Cl)cc1)c1[nH]c2ccc(F)cc2c1-c1ccccc1 (configuration not stated) , is 57.8% (inactive)

growth recorded for this compound, N#CC(C#N)=Cc1c(-c2ccccc2)[nH]c2ccccc12 , is 41% (inactive)

====

# Test system: ACHN renal
# MEASUREMENT_NOTES: NCI-60 one-dose screen, 48 h (100 = growth as untreated, 0 = no growth, -100 = all killed)
# CONDITION_NOTES: 10 µM unless noted
This is part of a sample that, as a whole, favours compounds with a hit. Of some 83,000 tested, about 20% had one in any assay. Calls of active or inactive are those of the source. The calls were made as follows: active = growth percent below 10; inactive = the rest.
Readings of growth for the listed compounds

COMPOUND	METRIC	RESULT
Nc1nonc1-n1nncc1-c1cccnc1	growth	105% (inactive)
O=C(c1ccccc1)N(CCc1ccc(Cl)cc1)C(=S)N(C(=O)c1ccccc1)c1ccccc1	growth	110% (inactive)
CCOC(=O)c1cnc2c(C)cccc2c1Nc1ccc(C(C)=O)cc1	growth	17.7% (inactive)
CN1CCN(Cc2ccc(NC(=O)c3cncc(C#Cc4nc(N)nc5[nH]ncc45)c3)cc2C(F)(F)F)CC1	growth	99.8% (inactive)
CCC(C)(C)C(=O)O[C@H]1C[C@@H](C)C=C2C=C[C@H](C)[C@H](CC[C@@H]3CC=CC(=O)O3)[C@H]21	growth	70.9% (inactive)

growth recorded for this compound, COC(=O)[C@H](NC(=O)C1(C)CCC[C@]2(C)[C@H]3C[C@H]4C(C(C)C)=C[C@]3(CC[C@@H]12)[C@@H]1C(=O)CCC(=O)[C@@H]14)C(C)C (some centres undefined) , is 100% (inactive)

growth recorded for this compound, COc1ccc(Cn2cc(Cn3cc(C=C4C(=O)NC(=O)NC4=O)c4ccccc43)nn2)cc1 , is 91.4% (inactive)

growth recorded for this compound, O=c1oc2ccc(Br)cc2c(=O)n1-c1ccc(I)cc1F , is 3.46% (active)

growth recorded for this compound, COc1cc(/C=C2\CN(C)C/C(=C\c3cc(CN4CCCCC4)c(O)c(OC)c3)C2=O)cc(CN2CCCCC2)c1O , is 39% (inactive)

====

Readings of growth for the listed compounds
# Tested on: SK-OV-3 ovarian
# MEASUREMENT_NOTES: NCI-60 one-dose screen, 48 h (100 = growth as untreated, 0 = no growth, -100 = all killed)
# CONDITION_NOTES: 10 µM unless noted
Compounds without any hit were thinned out: in the full panel of roughly 83,000, 20% have a hit.
Just the number in %, nothing appended.

COMPOUND	SYSTEM	UNIT_SPEC	growth
Cc1ccc(Nc2nc(N)c3ccccc3n2)cc1Cl	SK-OV-3 ovarian	%	80.4
O=c1oc2ccc(I)cc2c(=O)n1-c1ccc(Br)cc1F	SK-OV-3 ovarian	%	-9.81

growth recorded for this compound, Cc1ccc(C(=O)c2oc3ccc4c(C)cc(=O)oc4c3c2C)cc1 , is 46.9

growth recorded for this compound, CCOC(=O)c1sc(-c2ccc(OS(=O)(=O)c3ccc(Br)s3)c(C=O)c2)nc1C , is 97.2

growth recorded for this compound, CCOC(=O)C1=C(C)N=c2s/c(=C\c3ccccc3O)c(=O)n2C1c1ccc(OC)c2ccccc12 (stereo not given) , is 61.7

growth recorded for this compound, COc1cccc(C2=NN3C(C2)c2ccccc2OC3c2ccc(/C=C3\SC(=O)NC3=O)cc2)c1 (stereo not given) , is 96.8

growth recorded for this compound, O=C1c2cc(Br)ccc2Oc2cc([N+](=O)[O-])ccc2N1c1ccc(I)cc1F , is 115

growth recorded for this compound, OC(c1ccccc1)c1nnc(SCc2ccccc2)n1Cc1ccccc1 (stereo not given) , is 90

growth recorded for this compound, COc1ccc(N)c(-c2cc3c(c4c2[nH]c2ccc(OC)cc24)CCCC3)c1 , is 77.3

growth recorded for this compound, COc1ccc(C2=Nn3c(NN)nnc3SC2)cc1 , is 105

Source of measurements: PubChem BioAssay (NCI)
